Sequence of the target: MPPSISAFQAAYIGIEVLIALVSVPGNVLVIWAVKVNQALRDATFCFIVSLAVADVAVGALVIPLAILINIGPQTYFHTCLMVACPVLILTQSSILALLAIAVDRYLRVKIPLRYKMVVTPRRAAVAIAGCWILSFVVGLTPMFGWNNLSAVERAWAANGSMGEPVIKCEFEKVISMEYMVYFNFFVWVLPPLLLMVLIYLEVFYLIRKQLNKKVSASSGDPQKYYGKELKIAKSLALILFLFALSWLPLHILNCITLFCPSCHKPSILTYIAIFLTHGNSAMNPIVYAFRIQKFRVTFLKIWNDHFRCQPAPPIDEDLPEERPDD
pKi: −log10 of the molar value.
Mark True for reported pKi of 7 or greater; mark False for anything smaller.

> print(dat)
                               input.smiles  class.label
1  NC(=O)/N=N/Nc1nc(Nc2ccccc2)c2ncn([C@@H]3O[C@H](CO)[C@@H](O)[C@H]3O)c2n1        False
2  Nc1nc(/N=N/NC(=O)Nc2ccccc2)nc2c1ncn2[C@@H]1O[C@H](CO)[C@@H](O)[C@H]1O         True
3  O=C(N/N=N/c1nc(Nc2ccccc2)c2ncn([C@@H]3O[C@H](CO)[C@@H](O)[C@H]3O)c2n1)Nc1ccccc1        False

Threshold query (pKi >= 7) on `Nc1nc(/N=N/NC(=O)NC2CCCCC2)nc2c1ncn2[C@@H]1O[C@H](CO)[C@@H](O)[C@H]1O`
True

----------
target.of.assay: UniProt P29275
Sequence (P29275 whole entry): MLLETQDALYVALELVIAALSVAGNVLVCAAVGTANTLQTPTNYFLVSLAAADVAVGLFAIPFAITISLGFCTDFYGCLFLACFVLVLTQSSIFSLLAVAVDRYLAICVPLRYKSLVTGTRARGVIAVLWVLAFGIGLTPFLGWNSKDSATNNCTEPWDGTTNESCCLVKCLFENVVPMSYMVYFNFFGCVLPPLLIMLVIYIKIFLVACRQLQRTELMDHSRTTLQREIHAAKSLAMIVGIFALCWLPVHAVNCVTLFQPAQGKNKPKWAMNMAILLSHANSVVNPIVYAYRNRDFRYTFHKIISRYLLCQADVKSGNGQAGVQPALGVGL
measurement.notes: In vitro binding affinity towards human adenosine A2B receptor by [3H]DPCPX displacement at 10 uM.
Collected Displacement values appear next to each entry.
# unit: % | format: bare number

Please review the following examples before continuing.
> print(dat)
                                   compound  recorded.endpoint  readout.units  reported.value
1  Nc1nc(/N=N/NC(=O)Nc2ccc(Cl)cc2)nc2c1ncn2[C@@H]1O[C@H](CO)[C@@H](O)[C@H]1O       Displacement              %              21
2  Nc1nc(/N=N/NC(=O)Oc2ccccc2)nc2c1ncn2C1O[C@H](CO)[C@@H](O)[C@H]1O (some centres undefined)       Displacement              %               6
3  Nc1nc(/N=N/NC(=O)Nc2ccccc2)nc2c1ncn2[C@@H]1O[C@H](CO)[C@@H](O)[C@H]1O       Displacement              %              54

Read the next record carefully.
Any idea what Displacement was measured for `Nc1nc(/N=N/NC(=O)NC2CCCCC2)nc2c1ncn2[C@@H]1O[C@H](CO)[C@@H](O)[C@H]1O` ?
6

----------
target.of.assay: Adenosine receptor A2a (Homo sapiens)
Sequence (P29274 whole entry): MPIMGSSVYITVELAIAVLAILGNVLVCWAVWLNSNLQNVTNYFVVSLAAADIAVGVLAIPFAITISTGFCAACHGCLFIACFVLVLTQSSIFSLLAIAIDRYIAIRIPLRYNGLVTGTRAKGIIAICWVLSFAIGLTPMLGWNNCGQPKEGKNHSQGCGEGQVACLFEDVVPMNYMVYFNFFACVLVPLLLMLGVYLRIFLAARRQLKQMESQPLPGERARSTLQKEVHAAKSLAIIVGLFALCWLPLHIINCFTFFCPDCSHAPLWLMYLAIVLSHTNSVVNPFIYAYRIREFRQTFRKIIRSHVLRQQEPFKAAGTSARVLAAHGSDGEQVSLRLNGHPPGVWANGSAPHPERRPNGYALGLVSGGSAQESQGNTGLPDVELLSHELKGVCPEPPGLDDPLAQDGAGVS
measurement.notes: Binding affinity for human Adenosine A2A receptor using [3H]ZM-241385
Collected log10 of Ki values appear next to each entry.
Annotation: log10 of Ki, nM basis.

Recall the recorded log10 of Ki for `Nc1nc(N=O)nc2c1ncn2[C@@H]1O[C@H](CO)[C@@H](O)[C@H]1O` with Adenosine receptor A2a (Homo sapiens) and state it.
2.86

Recall the recorded log10 of Ki for `Nc1nc(/N=N/c2ccccc2)nc2c1ncn2[C@@H]1O[C@H](CO)[C@@H](O)[C@H]1O` with Adenosine receptor A2a (Homo sapiens) and state it.
2.26

Recall the recorded log10 of Ki for `Nc1nc(/N=N/NC(=O)NC2CCCCC2)nc2c1ncn2[C@@H]1O[C@H](CO)[C@@H](O)[C@H]1O` with Adenosine receptor A2a (Homo sapiens) and state it.
1.40

Recall the recorded log10 of Ki for `Nc1nc(/N=N/NC(=O)c2ccccc2)nc2c1ncn2[C@@H]1O[C@H](CO)[C@@H](O)[C@H]1O` with Adenosine receptor A2a (Homo sapiens) and state it.
3.00

Recall the recorded log10 of Ki for `Nc1nc(/N=N/NC(=O)Nc2ccccc2)nc2c1ncn2[C@@H]1O[C@H](CO)[C@@H](O)[C@H]1O` with Adenosine receptor A2a (Homo sapiens) and state it.
1.40

Recall the recorded log10 of Ki for `NC(=O)/N=N/Nc1nc(N)c2ncn([C@@H]3O[C@H](CO)[C@@H](O)[C@H]3O)c2n1` with Adenosine receptor A2a (Homo sapiens) and state it.
1.94

Recall the recorded log10 of Ki for `CCNC(=O)/N=N/Nc1nc(N)c2ncn([C@@H]3O[C@H](CO)[C@@H](O)[C@H]3O)c2n1` with Adenosine receptor A2a (Homo sapiens) and state it.
1.28

----------
target.of.assay: Adenosine receptor A3 (Homo sapiens, UniProt P0DMS8)
Sequence (P0DMS8 whole entry): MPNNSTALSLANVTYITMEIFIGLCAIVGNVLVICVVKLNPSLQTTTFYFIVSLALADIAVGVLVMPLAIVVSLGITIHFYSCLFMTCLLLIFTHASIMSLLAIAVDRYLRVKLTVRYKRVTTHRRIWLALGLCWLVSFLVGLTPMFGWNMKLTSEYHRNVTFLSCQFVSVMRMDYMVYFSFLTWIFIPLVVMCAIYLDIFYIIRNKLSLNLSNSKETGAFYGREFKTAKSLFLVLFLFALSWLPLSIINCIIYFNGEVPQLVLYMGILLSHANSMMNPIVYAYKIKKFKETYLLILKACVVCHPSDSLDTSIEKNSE
measurement.notes: Inhibition of [125 I]-IABMECA binding to human adenosine A3 receptor
Please note: Ki exactly at 90 nM is not fulfilled. Only values below 90 nM get fulfilled.

Illustrative cases are given below, each with its answer.
> print(dat)
                                   compound    class.label
1  Nc1nc(/N=N/NC(=O)Nc2ccccc2Cl)nc2c1ncn2[C@@H]1O[C@H](CO)[C@@H](O)[C@H]1O  not fulfilled
2  COc1ccccc1NC(=O)/N=N/Nc1nc(N)c2ncn([C@@H]3O[C@H](CO)[C@@H](O)[C@H]3O)c2n1      fulfilled
3  Nc1nc(NN=NC(=O)Oc2ccccc2)nc2c1ncn2C1O[C@H](CO)[C@@H](O)[C@H]1O (stereo partly drawn)  not fulfilled
4  Nc1nc(/N=N/NC(=O)NCc2ccccc2)nc2c1ncn2[C@@H]1O[C@H](CO)[C@@H](O)[C@H]1O  not fulfilled
5  COc1ccc(NC(=O)/N=N/Nc2nc(N)c3ncn([C@@H]4O[C@H](CO)[C@@H](O)[C@H]4O)c3n2)cc1      fulfilled

Say whether its Ki is strictly beneath 90 nM. Entry: `O=C(N/N=N/c1nc(NC2CCCC2)c2ncn([C@@H]3O[C@H](CO)[C@@H](O)[C@H]3O)c2n1)Nc1ccccc1`
not fulfilled

Say whether its Ki is strictly beneath 90 nM. Entry: `Nc1nc(/N=N/NC(=O)Nc2nccs2)nc2c1ncn2[C@@H]1O[C@H](CO)[C@@H](O)[C@H]1O`
not fulfilled

----------
target.of.assay: Adenosine receptor A2a (Homo sapiens)
Collected Ki values appear next to each entry.

Please review the following examples before continuing.
> print(dat)
                               input.smiles                        target.of.assay  recorded.endpoint  reported.value
1  OC[C@H]1O[C@@H](n2cnc3c(NC4CCCC4)nc(Cl)nc32)[C@H](O)[C@@H]1O  Adenosine receptor A2a (Homo sapiens)                 Ki          639 nM
2  Nc1nc(/N=N/NC(=O)NCc2ccccc2)nc2c1ncn2[C@@H]1O[C@H](CO)[C@@H](O)[C@H]1O  Adenosine receptor A2a (Homo sapiens)                 Ki           25 nM
3  Nc1nc(/N=N/NC(=O)Nc2ccccc2Cl)nc2c1ncn2[C@@H]1O[C@H](CO)[C@@H](O)[C@H]1O  Adenosine receptor A2a (Homo sapiens)                 Ki           45 nM
4  O=C(N/N=N/c1nc(NCC(c2ccccc2)c2ccccc2)c2ncn([C@@H]3O[C@H](CO)[C@@H](O)[C@H]3O)c2n1)Nc1ccccc1  Adenosine receptor A2a (Homo sapiens)                 Ki          980 nM
5  COc1ccc(NC(=O)/N=N/Nc2nc(N)c3ncn([C@@H]4O[C@H](CO)[C@@H](O)[C@H]4O)c3n2)cc1  Adenosine receptor A2a (Homo sapiens)                 Ki           25 nM
6  Nc1nc(/N=N/NC(=O)Nc2nccs2)nc2c1ncn2[C@@H]1O[C@H](CO)[C@@H](O)[C@H]1O  Adenosine receptor A2a (Homo sapiens)                 Ki           25 nM

Any idea what Ki was measured for `COc1ccccc1NC(=O)/N=N/Nc1nc(N)c2ncn([C@@H]3O[C@H](CO)[C@@H](O)[C@H]3O)c2n1` ?
125 nM

----------
target.of.assay: Adenosine receptor A1 (Homo sapiens)
Sequence (P30542 whole entry): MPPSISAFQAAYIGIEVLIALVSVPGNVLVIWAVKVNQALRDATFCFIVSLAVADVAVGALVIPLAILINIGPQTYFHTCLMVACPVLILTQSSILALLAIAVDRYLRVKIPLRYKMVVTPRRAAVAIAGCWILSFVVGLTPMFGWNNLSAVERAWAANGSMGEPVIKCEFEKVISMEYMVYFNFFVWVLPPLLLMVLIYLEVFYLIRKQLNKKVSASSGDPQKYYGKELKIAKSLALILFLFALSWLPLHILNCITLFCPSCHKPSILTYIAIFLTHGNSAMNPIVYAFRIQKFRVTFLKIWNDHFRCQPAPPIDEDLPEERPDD
recorded.endpoint: pKi
Please express pKi as -log10 of the molar concentration.

Please review the following examples before continuing.
> print(dat)
                               input.smiles  reported.value
1  Nc1nc(/N=N/NC(=O)Nc2ccccc2Cl)nc2c1ncn2[C@@H]1O[C@H](CO)[C@@H](O)[C@H]1O            7.64
2  Nc1nc(/N=N/NC(=O)Nc2nccs2)nc2c1ncn2[C@@H]1O[C@H](CO)[C@@H](O)[C@H]1O            7.62
3  Nc1nc(/N=N/NC(=O)NCc2ccccc2)nc2c1ncn2[C@@H]1O[C@H](CO)[C@@H](O)[C@H]1O            7.38
4  Nc1nc(/N=N/NC(=O)c2ccccc2)nc2c1ncn2[C@@H]1O[C@H](CO)[C@@H](O)[C@H]1O            5.72

Read the next record carefully.
Any idea what pKi was measured for `COc1ccc(NC(=O)/N=N/Nc2nc(N)c3ncn([C@@H]4O[C@H](CO)[C@@H](O)[C@H]4O)c3n2)cc1` ?
7.70
